Listed compounds paired with reported GI50
Tested on: SN12C
Test: NCI tumour cell line growth inhibition, 48 h
The source made the active and inactive calls. Rule as the data show it: active = GI50 up to about 1.1 µM and inactive = higher.

{"columns": ["compound", "targetSystem", "recordedMeasurement"],
 "data": [
  ["Cc1cc(N(CCC#N)CCC#N)ccc1C(/N=N/c1ccccc1)=N\\NC(=O)c1cc(Cl)ccc1O", "SN12C", "26.5 µM (inactive)"],
  ["N[C@@H](CCC(=O)NCP(=O)(O)O)C(=O)O", "SN12C", "> 100 µM (inactive)"],
  ["O=c1c(NO)c([N+](=O)[O-])cnn1-c1ccccc1", "SN12C", "3.08 µM (inactive)"],
  ["C=CCc1cccc2cc(C(N)=O)c(=N)oc12", "SN12C", "> 100 µM (inactive)"],
  ["OC[C@H]1O[C@@H]2O[C@@](COCc3ccccc3)([C@H](OCc3ccccc3)[C@H]2O)[C@@H]1OCc1ccccc1", "SN12C", "15.7 µM (inactive)"],
  ["O=c1oc2ccccc2cc1-c1csc(Nc2ccc(F)cc2)n1", "SN12C", "3.01 µM (inactive)"],
  ["Cc1cc(S(=O)(=O)/N=C(\\NN)NNc2cccc(C(F)(F)F)n2)c(S)cc1Cl", "SN12C", "30.6 µM (inactive)"],
  ["CCCCCC1=CC(=O)C1(Cl)Cl", "SN12C", "20.3 µM (inactive)"],
  ["O=C(/C=C/c1c[nH]c2ccccc12)c1ccccc1O", "SN12C", "13.8 µM (inactive)"],
  ["Cc1ccccc1-n1c(=S)[nH]c2c(sc(=O)n2-c2ccccc2C)c1=O", "SN12C", "> 100 µM (inactive)"]
]}

Record request: GI50 value, item c1ccc(Nc2nnc(CSc3nc(-c4ccccc4)c(-c4ccccc4)[nH]3)s2)cc1
17.1 µM (inactive)

Another: O=C1OC(c2ccc(Cl)cc2)=N/C1=C\c1ccccc1
> 100 µM (inactive)

Another: CCOC(=O)CNc1c(OCc2ccccc2)c(=O)c1=O
> 100 µM (inactive)

Another: COC1=C(Br)C(O)C2(C=C1Br)CC(C(=O)NCCCCNC(=O)C1=NOC3(C=C(Br)C(OC)=C(Br)C3O)C1)=NO2 (stereo unspecified)
25.6 µM (inactive)

Another: CC(=O)Nc1ccc(/C=C/C(=O)c2sc(-c3nc(C)c(C(=O)/C=C/c4ccc(NC(C)=O)cc4)s3)nc2C)cc1
> 100 µM (inactive)

Another: Cc1ccc(S(=O)(=O)N/N=C/CN2C(=O)c3ccccc3C2=O)cc1
> 100 µM (inactive)

Another: COc1cc([C@H]2c3cc4c(cc3O[C@@]3(O)COC(=O)[C@@H]23)OCO4)cc(OC)c1OC
> 100 µM (inactive)

Another: Cc1ccc2nc(-c3ccc(N4C(=O)C(Cl)C4c4ccc(Cl)cc4)cc3)sc2c1 (stereo unspecified)
19.9 µM (inactive)

Another: CCCC(=O)n1[nH]c(=O)n(C(C)(C)C)c1=O
> 100 µM (inactive)

Another: CN1C2(c3ccccc3)c3c(-c4ccccc4)sc(-c4ccccc4)c3C1(c1ccccc1)C1C(=O)N(c3ccccc3)C(=O)C12 (stereo unspecified)
> 100 µM (inactive)

Another: COc1ccc(C(C)c2cc3c(cc2O)OCO3)cc1 (stereo unspecified)
18.6 µM (inactive)

All figures here come from ChEMBL document CHEMBL1201862.
